- experimental-target: human MRGPRX4-83L (Homo sapiens)
- Construct: host or cells: CHO β-arrestin cells
- Sequence (Q96LA9 whole entry): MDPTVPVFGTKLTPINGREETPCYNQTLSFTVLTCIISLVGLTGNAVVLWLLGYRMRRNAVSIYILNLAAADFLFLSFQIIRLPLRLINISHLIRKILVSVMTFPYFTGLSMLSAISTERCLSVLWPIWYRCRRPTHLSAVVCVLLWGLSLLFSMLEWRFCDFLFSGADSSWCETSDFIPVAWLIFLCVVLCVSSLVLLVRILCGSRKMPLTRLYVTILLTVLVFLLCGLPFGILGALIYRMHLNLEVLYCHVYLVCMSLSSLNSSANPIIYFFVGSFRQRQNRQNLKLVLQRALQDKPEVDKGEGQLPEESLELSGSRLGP
- measurement-description: Calcium assay (human MRGPRX4 83L), recombinant astrocytes
- Type: cell-based
- settings: Table 1; efficacy based on maximal effect of 1 μM B-16 (set as 100%); read-out: Emax
parameter: Emax (%)

1. C#CCn1c(=O)c2[nH]c(CCc3ccccc3Cl)nc2n(CCCCP(=O)(O)O)c1=O : 107
2. C#CCn1c(=O)c2[nH]c(CCc3cccc(OC)c3)nc2n(CCCCP(=O)(O)O)c1=O : 102
3. CCCn1c(=O)c2c(nc(CCc3cccc(OC)c3)n2C)n(CCCOP(=O)(O)O)c1=O [H-2, reference compound] : 113
4. C#CCn1c(=O)c2c(nc(CCc3ccccc3Br)n2C)n(CCCCP(=O)(O)OCC)c1=O : 115
5. C#CCn1c(=O)c2c(nc(CCc3ccccc3Br)n2C)n(CCCCP(=O)(O)O)c1=O : 112
6. C#CCn1c(=O)c2c(nc(CCc3ccccc3Br)n2CCO)n(CCCCP(=O)(O)O)c1=O : 103
7. C#CCn1c(=O)c2[nH]c(CCc3cccc(C(F)(F)F)c3)nc2n(CCCCP(=O)(O)O)c1=O : 99
8. CCn1c(=O)c2[nH]c(CCc3ccc(F)cc3)nc2n(CCCCP(=O)(O)O)c1=O : 99
9. C#CCn1c(=O)c2c(nc(CCc3cccc(OC)c3)n2C)n(CCCCP(=O)(O)O)c1=O : 113
10. C#CCn1c(=O)c2[nH]c(CCc3cccc(C)c3)nc2n(CCCCP(=O)(O)O)c1=O : 91
11. C#CCn1c(=O)c2c(nc(CCc3ccccc3Br)n2CC)n(CCCCP(=O)(O)O)c1=O : 115
12. C#CCn1c(=O)c2c(nc(CCc3ccccc3Br)n2CC2CC2)n(CCCCP(=O)(O)O)c1=O : 109
13. C#CCn1c(=O)c2[nH]c(CCc3ccccc3OC)nc2n(CCCCP(=O)(O)OCC)c1=O : 103
14. C#CCn1c(=O)c2[nH]c(CCc3cccc(Br)c3)nc2n(CCCCP(=O)(O)O)c1=O : 100
15. C#CCn1c(=O)c2[nH]c(CCc3ccc(OC)c(OC)c3)nc2n(CCCCP(=O)(O)O)c1=O : 100
16. C#CCn1c(=O)c2[nH]c(CCc3ccccc3Br)nc2n(CCCCP(=O)(O)O)c1=O : 114
17. C#CCn1c(=O)c2c(nc(CCc3ccccc3Cl)n2C)n(CCCCP(=O)(O)O)c1=O : 109

* * *

- experimental-target: MRGPRX4-83S (Homo sapiens, UniProt Q96LA9, L83S)
- Sequence (Q96LA9 whole entry L83S): as the sequence (Q96LA9 whole entry) above, with L83S counted along it
- measurement-description: β-arrestin assay (CHO β-arrestin human MRGPRX4-83S)
- Assay type: cell-based
- Parameters: host or cells: CHO β-arrestin cells
- settings: Table 3; β-arrestin recruitment, CHO cells, MRGPRX4-83S; read-out: EC50 ± SEM
parameter: EC50 (nM)

Solved entries (count: 2):
1) C#CCn1c(=O)c2c(nc(CCc3ccccc3Br)n2CCN)n(CCCCP(=O)(O)O)c1=O [B-51] : 0.932
2) C#CCn1c(=O)c2c(nc(CCc3ccccc3Br)n2C(C)C)n(CCCCP(=O)(O)O)c1=O [B-46] : 0.075

a. C#CCn1c(=O)c2c(nc(CCc3ccc(I)cc3)n2CC2CCCC2)n(CCCCP(=O)(O)O)c1=O [B-39]
b. C#CCn1c(=O)c2c(nc(CCc3ccccc3Br)n2CC2CCCCC2)n(CCCCP(=O)(O)O)c1=O [B-36]
Q: Lower EC50: a or b ? Field: selected label. Fill in the label of the entry you choose.
Result: a
(a: 0.773 nM, b: 4.28 nM)
